Value source: the supplement of paper PMC10307832

- Test system: UMC-11
- protocol.details: relative viability (nuclei count vs DMSO), 5 days (fraction); higher = more cells survive
- recorded.conditions: first compound 0.1265 µM
measured.attribute: relative viability

Some solved entries appear below for comparison.
compound	experimental.result
Cc1sc2c(c1C)C(c1ccc(Cl)cc1)=N[C@@H](CC(=O)OC(C)(C)C)c1nnc(C)n1-2 [JQ1] + Nc1nc2[nH]cc(CCc3ccc(C(=O)N[C@@H](CCC(=O)O)C(=O)O)cc3)c2c(=O)[nH]1 [Pemetrexed] (partner 0.2 µM)	0.584
Cc1sc2c(c1C)C(c1ccc(Cl)cc1)=N[C@@H](CC(=O)OC(C)(C)C)c1nnc(C)n1-2 [JQ1] + O=C(CCCCCCC(=O)Nc1ccccc1)NO [Vorinostat] (partner 1 µM)	0.317
Cc1sc2c(c1C)C(c1ccc(Cl)cc1)=N[C@@H](CC(=O)OC(C)(C)C)c1nnc(C)n1-2 [JQ1] + Cc1cc(Nc2cc(N3CCN(C)CC3)nc(Sc3ccc(NC(=O)C4CC4)cc3)n2)n[nH]1 [Tozasertib] (partner 0.1 µM)	0.192
Cc1sc2c(c1C)C(c1ccc(Cl)cc1)=N[C@@H](CC(=O)OC(C)(C)C)c1nnc(C)n1-2 [JQ1] + C[C@]1(O)C[C@@H](c2nc(-c3ccc4ccc(-c5ccccc5)nc4c3)c3c(N)nccn32)C1 [Linsitinib] (partner 1 µM)	0.793

Field: next compound
Q: Hello, I am looking for reported relative viability with UMC-11 for Cc1sc2c(c1C)C(c1ccc(Cl)cc1)=N[C@@H](CC(=O)OC(C)(C)C)c1nnc(C)n1-2 [JQ1] + Nc1ncn([C@H]2C[C@H](O)[C@@H](CO)O2)c(=O)n1 [Decitabine] (partner 2 µM) . Could you help?
A: 0.468
